Entry source: ChEMBL document CHEMBL1201862

What GI50 was measured for each of the following?
System: UO-31
PROTOCOL: NCI tumour cell line growth inhibition, 48 h
Calls of active or inactive are those of the source. No stated cut-off is given here; in the data, active = GI50 up to about 1.1 µM and inactive = higher.

Consider the reported GI50 for these compounds:
CCOC(=O)CCC(NC(=O)c1ccc(NCc2ccc3nc(-c4ccccc4)c(Cl)nc3c2)c2ccccc12)C(=O)OCC (stereo not given) ... > 100 µM (inactive)
O=C(NC(=S)Nc1ccc([N+](=O)[O-])cc1)c1ccc2c(c1)Sc1ccccc1O2 ... > 100 µM (inactive)
CCOC(=O)[C@@H]1ON2OC(OC3CCCC3(c3ccccc3)c3ccccc3)C(OC(C)=O)[C@H]3OC(=O)[C@@H]1C32 (stereo not given in full) ... 36.4 µM (inactive)
OCC1CCCCCCCCCCC12SCCCS2 (stereo not given) ... > 100 µM (inactive)
COc1ccc(N2C(=O)C(=O)C3(CCCCC3)C2=O)c(OC)c1OC ... > 100 µM (inactive)
c1cc2cc(Cc3ccc4[nH]ccc4c3)ccc2[nH]1 ... 16.2 µM (inactive)
C[n+]1c2ccccc2n2c3ccccc3c(NCCCn3ccnc3)c(C#N)c21 ... 7.21 µM (inactive)
Cc1ccc(C)c(NC(=O)C(=O)C(C(=O)c2ccc3ccccc3c2)C2OC(=O)c3ccccc32)c1 (stereo not given) ... 16.5 µM (inactive)
NC(N)=NCc1ccc2c(c1)OCO2 ... > 100 µM (inactive)

// next entry
Data request: Entry "COC(=O)/C=C1/OC(c2ccccc2)=C(C)C1=O" : reported GI50 = ?
Data returned: 13.8 µM (inactive)

====

What GI50 was measured for each of the following?
Test system: SK-OV-3
PROTOCOL: NCI tumour cell line growth inhibition, 48 h
Calls of active or inactive are those of the source. Rule as the data show it: active = GI50 up to about 1.1 µM and inactive = higher.

Consider the reported GI50 for these molecules:
O=C1COc2cc(N3CCN(c4cccc(C(F)(F)F)c4)CC3)ccc2N1 ... > 100 µM (inactive)
CCC(CON(C)c1ccccc1)(SC)SC ... > 100 µM (inactive)

Can you give me GI50 for all of these, one by one?
1. COc1cc2c(c(OC)c1)C(=O)O[C@H](C)CCCC/C=C/C2
2. C/C(=C\COP(=O)(O)OP(=O)(O)O)CC/C=C(\C)CNc1ccccc1
3. O=c1oc2ccc3ccccc3c2cc1-c1nc2ccc([N+](=O)[O-])cc2o1
4. Cc1c(Cl)nc(Nc2nc3ccccc3[nH]2)nc1Cl

Data returned:
45.9 µM (inactive)
> 50 µM (inactive)
> 30.4 µM (inactive)
> 100 µM (inactive)

====

Test system: XF498
PROTOCOL: NCI tumour cell line growth inhibition, 48 h
The source made the active and inactive calls. Rule as the data show it: active = GI50 up to about 1.1 µM and inactive = higher.
PARAMETER MEASURED: GI50

Can you give me GI50 for all of these, one by one?
1. O=C(O)C1=C(CO)Oc2cc3c(cc2C1c1ccc2c(c1)OCO2)OCO3 (configuration not stated)
2. Cc1ccc(C)c(NC(=O)C(=O)C(C(=O)c2ccc3ccccc3c2)C2OC(=O)c3ccccc32)c1 (configuration not stated)
3. COC(=O)C1C(O)C(C)C(O)OC1C(C)C(O)C(C)/C=C\C=C(/C)C(=O)Nc1c(C)c(OC(C)=O)c2c(c1O)C(=O)C(C)=C1OCOC(/C(C)=C/C(C)=O)=C12 (configuration not stated)
4. CN(C)c1nnnn1-c1c(N)n(C)c(=O)n(C)c1=O
5. Cc1ccc(NC(=O)c2cc3cc(/N=N/c4ccccc4C(=O)O)ccc3oc2=O)cc1
6. O=S(=O)(O)c1ccc(/N=N\c2ccc(/N=N\c3ccc(/C=C/c4ccc(/N=[N+](/[O-])c5ccc(/C=C/c6ccc(/N=N/c7ccc(/N=N\c8ccc(S(=O)(=O)O)cc8)cc7)cc6S(=O)(=O)O)c(S(=O)(=O)O)c5)cc4S(=O)(=O)O)c(S(=O)(=O)O)c3)cc2)cc1

Data returned:
1. > 100 µM (inactive)
2. 14.5 µM (inactive)
3. 13.8 µM (inactive)
4. > 100 µM (inactive)
5. 33 µM (inactive)
6. > 100 µM (inactive)

====

Tested on: DLD-1
PROTOCOL: NCI tumour cell line growth inhibition, 48 h
The source made the active and inactive calls. Rule as the data show it: active = GI50 up to about 1.1 µM and inactive = higher.
PARAMETER MEASURED: GI50

Consider the reported GI50 for these molecules:
O=C(Nc1ccc(Cl)cc1)C(=O)C(C(=O)c1ccccc1-c1ccccc1)C1OC(=O)c2ccccc21 (stereo unspecified) ... 29 µM (inactive)
O=C1C(O)=C(CC=C(Cl)Cl)C(=O)c2ccccc21 ... 1.65 µM (inactive)
Cc1ccc(C)c(NC(=O)C(=O)C(C(=O)c2ccc3ccccc3c2)C2OC(=O)c3ccccc32)c1 (stereo unspecified) ... 23 µM (inactive)

Can you give me GI50 for all of these, one by one?
1. Cn1c(=O)c(/N=N/c2c(=O)n(C)c(=O)n3c2[nH]c2ccccc23)c2[nH]c3ccccc3n2c1=O
2. Oc1c2c(nc3cc4c(cc13)OCO4)-c1ccccc1CC2
3. COc1cc(/C=C2\CCC(CN(C)C)C2=O)ccc1OC(=O)c1ccccc1 (stereo unspecified)

Data returned:
> 100 µM (inactive)
> 100 µM (inactive)
4.67 µM (inactive)

====

Test system: SN12C
PROTOCOL: NCI tumour cell line growth inhibition, 48 h
Active and inactive are the calls of the source. Rule as the data show it: active = GI50 up to about 1.1 µM and inactive = higher.
PARAMETER MEASURED: GI50

Consider the reported GI50 for these compounds:
C=CCOCn1cc(C)c(=O)[nH]c1=O ... > 100 µM (inactive)
CCCCCC/C=C1\CCC(CN2CCCC2)C1=O (stereo not drawn) ... 12.9 µM (inactive)
CCCCCCCCCCCCCCCCNCC(O)CN (stereo not drawn) ... 4.07 µM (inactive)

Can you give me GI50 for all of these, one by one?
1. Cc1oc2ccccc2c(=O)c1Cn1nnc2ccccc21
2. NNC(N)Nc1ccccc1 (stereo not drawn)

Data returned:
["> 100 µM (inactive)", "> 100 µM (inactive)"]

====

What GI50 was measured for each of the following?
Tested on: ACHN
PROTOCOL: NCI tumour cell line growth inhibition, 48 h
Calls of active or inactive are those of the source. No stated cut-off is given here; in the data, active = GI50 up to about 1.1 µM and inactive = higher.

COc1cc(Br)c(/C=N\c2cccc3ccc(OS(=O)(=O)c4ccc([N+](=O)[O-])cc4)cc23)cc1OC ... 12.4 µM (inactive)

Can you give me GI50 for all of these, one by one?
1. N#Cc1ccccc1/C=N/O
2. CCOc1ccc2c(c1)c(CC(=O)O)cn2C
3. O=C1c2c(c3c4ccccc4[nH]c3c3[nH]c4ccccc4c23)C(=O)N1Cc1ccccc1
4. NC1NCCC(=O)N1CCc1c[nH]c2ccccc12 (stereo unspecified)
5. CC(c1ccccc1)/[N+]([O-])=C/c1ccccc1 (stereo unspecified)
6. C=CC1OC(CCCOC(=O)C(C)(C)C)O[C@@H]1CC (stereo partly specified)
7. Oc1c(OCc2nnc(CCCCCCCCc3nnc(COc4ccc5ccccc5c4O)o3)o2)ccc2ccccc12

Data returned:
["> 60.3 µM (inactive)", "> 100 µM (inactive)", "2.87 µM (inactive)", "24.6 µM (inactive)", "> 100 µM (inactive)", "> 100 µM (inactive)", "> 100 µM (inactive)"]

Can you give me GI50 for all of these, one by one?
1. COC(=O)C1(Cc2ccc3c(c2)CCC3)Cc2ccc3c(c2C1=O)CCC3 (stereo unspecified)
2. CCOC(=O)c1nnsc1NC(=O)NN

Data returned:
["18.6 µM (inactive)", "> 100 µM (inactive)"]

Data request: Entry "[O-][Cl+3]([O-])([O-])[O-].c1ccc(C[P+]2(c3ccccc3)CCCCC2)cc1" : reported GI50 = ?
Data returned: > 100 µM (inactive)

====

Test system: OVCAR-8
PROTOCOL: NCI tumour cell line growth inhibition, 48 h
Calls of active or inactive are those of the source. Cut-off read from the data, not from the text of the source: active = GI50 up to about 1.1 µM and inactive = higher.
# valid calls are Yes = active, No = inactive; nothing else

Past entries and their recorded results:
Cc1ccc2c(/C=C/c3ccc(N(C)C)cc3)ccc(C(C)C)cc1-2 ... No
CC1(C)OC2COC3([C@@H]4OC(C)(C)O[C@@H]4CO)OC(C)(C)OC3C2O1 (stereo not given in full) ... No
O=C(O)C1=C(CO)Oc2cc3c(cc2C1c1ccc2c(c1)OCO2)OCO3 (stereo not given) ... No
CC[C@@]1(O)C[C@H](OC2CC(N(C)C)C(O)C(C)O2)c2c(cc3c(c2O)C(=O)c2c(O)ccc(O)c2C3=O)[C@H]1C(=O)OC (stereo not given in full) ... Yes
Cn1c2ccccc2n2c(=O)c(-c3ccc(Cl)cc3)nnc12 ... No

Data request: Hi, do you know how COCCCNC(=O)C1C(=O)N(CCCOC)C(=O)/C1=N\N (stereo not given) came out in this test?
Data returned: No

Data request: For CCOC1NC(=O)c2ccccc21 (stereo not given) then?
Data returned: No

Data request: For "O/N=C1/CCC/C1=C\c1ccccc1" then?
Data returned: No

Data request: For "NC(=O)CNC(=O)[C@@H]1C[C@@H](OCCC(=O)O)CN1C(=O)OCc1ccccc1" then?
Data returned: No

Data request: For "Cc1cc(C)c2c(n1)S(=O)(=O)N(CCCN1CCN(c3cccc(Cl)c3)CC1)C(C(=O)c1ccc(Br)cc1)=C2O" then?
Data returned: No
